Tested on: BDF1 mice, P388 leukemia ip, median survival T/C
ASSAY NOTES: NCI In Vivo Anticancer Drug Screen. Data for tumor model P388 Leukemia (intraperitoneal) in B6D2F1 (BDF1) mice
STATED CONDITIONS: endpoint: median survival time; dose: 25.0 mg/kg/injection; schedule: Q01DX009 (ip); vehicle: saline with Tween-80; higher = longer survival
Toxic doses and inconclusive results are not listed.
Give measured T/C for each item. Keep answers brief.

May I ask what T/C has been recorded for "O=C(NC(=O)c1c(F)cccc1F)Nc1nc2ccccc2s1" ?
93 % of control

"COc1cc2c(cc1O)CCCCC2=O" , same question.
109 % of control

Now consider O=C(O)CC(SC(CC(=O)O)C(F)(F)C(F)(F)C(F)(F)F)C(F)(F)C(F)(F)C(F)(F)F (stereo not given) and answer again.
100 % of control

Now the same for "CCOC(=O)Nc1ccc(/C=C\c2ccnc3ccccc23)cc1"
115 % of control

Can you handle "N#CC1(Nc2ccccc2)CCCCC1" next?
115 % of control

Param item: "O=C1SC2(CCCCC2)SC1=O"
95 % of control

Subsequent entry: O=C1NNC(c2ccccc2)C1(Cl)Cl (stereo not given)
99 % of control

Item: "O=C(Nc1cc(C(F)(F)F)ccc1Cl)ON1CCCCC1"
94 % of control

Please do the same for "S=C1SCCS1" as well.
100 % of control

Again, but for "O=C/C=C/c1ccc([N+](=O)[O-])cc1"
104 % of control

Record: CC(C)CC(NC(=O)CN)C(=O)O (stereo not given)
98 % of control

Another: "Cc1cc(Cl)n[nH]1"
98 % of control

Try this compound next: "O=[N+]([O-])c1ccc(NS(=O)(=O)c2ccc(Cl)c(Cl)c2Cl)c([N+](=O)[O-])c1"
96 % of control

Try this compound too: "CC(C)CCNc1ncnc2c1cnn2C"
100 % of control

Another compound: "Cc1nc(N)c(N)nc1C"
88 % of control

----------
System: BDF1 mice, P388 leukemia ip, median survival T/C
ASSAY NOTES: NCI In Vivo Anticancer Drug Screen. Data for tumor model P388 Leukemia (intraperitoneal) in B6D2F1 (BDF1) mice
STATED CONDITIONS: endpoint: median survival time; dose: 100.0 mg/kg/injection; schedule: Q01DX009 (ip); vehicle: saline with Tween-80; higher = longer survival
Toxic doses and inconclusive results are not listed.
TEST READOUT: T/C

Fill in the blank: the reported T/C of "Clc1ccc(CSc2ncnc3nc[nH]c23)cc1" is ____.
100 % of control

For "S=C(S)Nc1cccc2ccccc12" then?
100 % of control

Next entry: O=[N+]([O-])c1ccc(N2CCCC(n3cccc3)C2)c([N+](=O)[O-])c1 (stereo not given)
115 % of control

Now the compound "CC(=O)NC(C(=O)N/N=C(\C)c1ccccc1)C(=O)N/N=C(\C)c1ccccc1"
101 % of control

// same read-out, input: "CCOCc1c(COc2ccc(OC)cc2)n(CC#CCOc2ccc(OC)cc2)c2ccc(Br)cc12"
93 % of control

What would you report for O=C1OC2=C(Cl)C=CC=CC2C12C1C=CC=CC12 (stereo not given) ?
110 % of control

Moving on to "O=C1Oc2ccccc2C(=O)/C1=C1/C=C(c2ccccc2)SS1"
88 % of control

Queued: CCOC(=O)C(=O)C1CCCC1=O (stereo not given)
92 % of control

Now consider "N=Cc1c(O)n(-c2ccccc2)c(=O)[nH]c1=O" and answer again.
112 % of control

Lookup "COc1cc(NCCN2CCN(CCNc3cc(OC)cc4cccnc34)CC2)c2ncccc2c1"
110 % of control

Note, next up: "Nc1nc(SCCc2ccccc2)c2[nH]cnc2n1"
109 % of control

Further, for "O=C(CC(=O)Oc1ccc(Cl)cc1Cl)Oc1ccc(Cl)cc1Cl" ?
100 % of control

Then what about the compound Cc1cc(O)c(C(C)C)cc1S(=O)(=O)O (tested in a mixture with another compound) ?
95 % of control

What about this compound? COC(=O)C1=C(C(=O)OC)C(C(=O)OC)N2C=C(C)C=CC2=C1C(=O)OC (stereo not given)
100 % of control

Record: "CN(C)c1ccc(C(=O)NN)cc1"
121 % of control

Subsequent entry: CC(C)CC(NC(=O)CN)C(=O)O (stereo not given)
102 % of control

Also "O=CNNC(=O)c1ccccn1" , if possible.
96 % of control

// next record CSc1ccc(NC(=O)NN(c2ccccc2)C2CCS(=O)(=O)C2)cc1 (stereo not given)
102 % of control

Same lookup for "Cc1nnc2n1N=C(c1ccc(O)c(O)c1O)CS2" , please.
93 % of control

Same lookup for Nc1nc(=O)n(C2CC(O)C(CO)O2)cc1Br (stereo not given) , please.
109 % of control
